assayed system: T1, recombinant human CLL-1 extracellular domain (ECD, amino acids 65-265) fused to an N-terminal Flag (human, UniProt Q5QGZ9 65-265)
T1 construct: The construct and the K244Q SNP are stated for the immunogen; they are not written as a piece; also called huCLL-1-Flag; huCLL-1
T1 chain: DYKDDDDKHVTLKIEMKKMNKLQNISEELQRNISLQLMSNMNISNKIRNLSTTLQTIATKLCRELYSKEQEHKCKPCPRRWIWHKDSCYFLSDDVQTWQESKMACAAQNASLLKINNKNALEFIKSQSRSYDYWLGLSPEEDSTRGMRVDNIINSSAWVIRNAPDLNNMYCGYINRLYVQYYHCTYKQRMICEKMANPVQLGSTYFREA
test protocol: SPR (Biacore T200), IgG captured by anti-human Fc, CLL-1 as analyte
reported endpoint: koff

The binder listed as 6E7.L4H1e (antibody, V domains shown, humanized, assessed in the form of an IgG; also called humanized 6E7.L4H1e; h6E7) VH: EVQLVQSGAEVKKPGASVKVSCKASGYSFTDYYMHWVRQAPGQGLEWIGRINPYNGAAFYSQNFKDRVTLTVDTSTSTAYLELSSLRSEDTAVYYCAIERGADLEGYAMDYWGQGTLVTVSS VL: DIQMTQSPSSLSASVGDRVTITCRASQSVSTSSYNYMHWYQQKPGKPPKLLIKYASNLESGVPSRFSGSGSGTDFTLTISSLQPEDFATYYCQHSWEIPLTFGQGTKVEIK has a reported koff of 0.000984 s⁻¹
